In this section, each of the compounds is paired with its reported Polysulfanes and elemental sulfur distribution (HPLC, internal standard = 100).
Measurement description: Decomposition of polysulfanes with hydroxide ion, monitored by HPLC
Format: physicochemical
Settings: 0.75 hydroxide ion equivalents; 6A-F 2.5 mM, methanol/water 99.9:0.1, after 1 hr
Readout type: Polysulfanes and elemental sulfur distribution (HPLC, internal standard = 100)

Smiles str: COCCOCCOCCNC(=O)c1ccc2c(c1)SSSSS2
Value observed: 222.9

Smiles str: COCCOCCOCCNC(=O)c1ccc2ssssssc2c1
Value observed: 1.8

Smiles str: COCCOCCOCCNC(=O)c1ccc2c(c1)SSSSSSS2
Value observed: 4.7

Smiles str: COCCOCCOCCNC(=O)c1ccc2c(c1)SSSSSSSSS2
Value observed: 3.8

Smiles str: COCCOCCOCCNC(=O)c1ccc2c(c1)SSS2
Value observed: 14.2

Smiles str: [S]
Value observed: 26.7

====

Property: Polysulfanes and elemental sulfur distribution (HPLC, internal standard = 100); scope: individual molecules
Measurement description: Decomposition of polysulfanes with hydroxide ion, monitored by HPLC
Format: physicochemical
Settings: 0.25 hydroxide ion equivalents; 6A-F 2.5 mM, methanol/water 99.9:0.1, after 1 hr
Readout type: Polysulfanes and elemental sulfur distribution (HPLC, internal standard = 100)

Smiles str: [S]
Value observed: 12.3

Smiles str: COCCOCCOCCNC(=O)c1ccc2c(c1)SSSSSSS2
Value observed: 3.0

Smiles str: COCCOCCOCCNC(=O)c1ccc2ssssssc2c1
Value observed: 2.3

Smiles str: COCCOCCOCCNC(=O)c1ccc2c(c1)SSSSSSSSS2
Value observed: 2.1

Smiles str: COCCOCCOCCNC(=O)c1ccc2c(c1)SSS2
Value observed: 10.9

Smiles str: COCCOCCOCCNC(=O)c1ccc2c(c1)SSSSS2
Value observed: 362.4

====

Measurement description: Decomposition of polysulfanes with hydroxide ion, monitored by HPLC
Format: physicochemical
Settings: 0.5 hydroxide ion equivalents; 6A-F 2.5 mM, methanol/water 99.9:0.1, after 1 hr
Threshold check on Polysulfanes and elemental sulfur distribution (HPLC, internal standard = 100): strictly below 3 is true; on or above 3 is false.

Compound: COCCOCCOCCNC(=O)c1ccc2c(c1)SSSSSSSSS2 [Compound 6F]
Category label: false
--
Compound: COCCOCCOCCNC(=O)c1ccc2c(c1)SSSSSSS2 [Compound 6E]
Category label: true
--
Compound: COCCOCCOCCNC(=O)c1ccc2c(c1)SSS2 [Compound 6A]
Category label: false
--
Compound: COCCOCCOCCNC(=O)c1ccc2ssssssc2c1 [Compound 6D]
Category label: true
--
Compound: COCCOCCOCCNC(=O)c1ccc2c(c1)SSSSS2 [Compound 6C]
Category label: false
--
Compound: [S] [Compound S8, Elemental sulfur]
Category label: false

====

This listing pairs molecules with measured Polysulfanes and elemental sulfur distribution (HPLC, internal standard = 100).
Measurement description: Decomposition of polysulfanes with hydroxide ion, monitored by HPLC
Format: physicochemical
Settings: 1.0 hydroxide ion equivalents; 6A-F 2.5 mM, methanol/water 99.9:0.1, after 1 hr
Readout type: Polysulfanes and elemental sulfur distribution (HPLC, internal standard = 100)

Smiles str: COCCOCCOCCNC(=O)c1ccc2c(c1)SSSSSSS2
Value observed: 1.6
//
Smiles str: COCCOCCOCCNC(=O)c1ccc2c(c1)SSSSS2
Value observed: 163.9
//
Smiles str: [S]
Value observed: 32.4
//
Smiles str: COCCOCCOCCNC(=O)c1ccc2c(c1)SSS2
Value observed: 14.2
//
Smiles str: COCCOCCOCCNC(=O)c1ccc2c(c1)SSSSSSSSS2
Value observed: 3.1
//
Smiles str: COCCOCCOCCNC(=O)c1ccc2ssssssc2c1
Value observed: 1.5
